Value source: the Bradley open melting point set (2014)

Reported melting point values follow for various compounds

[
  {
    "Compound": "O=C(/C=C/c1ccccc1)c1ccc(Cl)cc1",
    "melting point / °C": 99
  },
  {
    "Compound": "CCCCCCCCCCCCCCCCCCCCCCCCCCCCCCCCC",
    "melting point / °C": 72
  },
  {
    "Compound": "CO[C@H]1O[C@H](CO)[C@@H](O)[C@H](O)[C@H]1O [methyl alpha-d-glucopyranoside]",
    "melting point / °C": 169
  },
  {
    "Compound": "C=CCCC(=O)O",
    "melting point / °C": -22
  },
  {
    "Compound": "OCCCCCCCCCCO",
    "melting point / °C": 73
  },
  {
    "Compound": "COC(=O)/C=C/C(=O)OC [Dimethyl (2E)-but-2-enedioate]",
    "melting point / °C": 104
  },
  {
    "Compound": "FC(F)(F)c1cc(-n2cccc2)cc(C(F)(F)F)c1 [1-[3,5-bis(trifluoromethyl)phenyl]pyrrole]",
    "melting point / °C": 42
  },
  {
    "Compound": "CCCCCCCCCCCCCCCCCC(=O)OC[C@@H](O)[C@H]1OC[C@H](O)[C@H]1O [1,4-Anhydro-6-O-stearoyl-D-glucitol]",
    "melting point / °C": 57
  },
  {
    "Compound": "O=C(O)c1ccc([N+](=O)[O-])cc1",
    "melting point / °C": 241
  },
  {
    "Compound": "Clc1cccc(Cl)c1N=C1NCCN1",
    "melting point / °C": 130
  },
  {
    "Compound": "CCN(CC)c1ccc2c(C)cc(=O)oc2c1",
    "melting point / °C": 74
  },
  {
    "Compound": "CC(C)NCC(O)COc1cccc2ccccc12 (centres undefined) [Propranolol]",
    "melting point / °C": 164
  },
  {
    "Compound": "O=[N+]([O-])c1ccc(CCl)cc1 [4-nitrobenzyl chloride]",
    "melting point / °C": 72
  },
  {
    "Compound": "O=C(O)CCc1ccccc1",
    "melting point / °C": 49
  },
  {
    "Compound": "O=Cc1ccc(Br)cc1",
    "melting point / °C": 57
  },
  {
    "Compound": "Cc1cc(C)cc(C=O)c1",
    "melting point / °C": 9
  },
  {
    "Compound": "COc1cc(B(O)O)cc(OC)c1OC",
    "melting point / °C": 245
  },
  {
    "Compound": "C=CC1CC=CCC1 (centres undefined)",
    "melting point / °C": -101
  },
  {
    "Compound": "O=C1CCC(=O)CC1",
    "melting point / °C": 78
  }
]

* * *

Measured melting point of individual entries

[
  {
    "Compound": "O=[N+]([O-])c1ccc(/C=C/c2ccc(O)cc2)cc1 [4-hydroxy-4'-nitrostilbene]",
    "melting point, °C": 207
  },
  {
    "Compound": "CC1(C)O[C@]2(C)CC[C@H]1CC2 [(1s,4s)-1,3,3-Trimethyl-2-oxabicyclo[2.2.2]octane]",
    "melting point, °C": 2
  },
  {
    "Compound": "Nc1ccc2ncsc2c1",
    "melting point, °C": 88
  },
  {
    "Compound": "CCCCCCCCCCCCN(CCCCCCCCCCCC)CCCCCCCCCCCC",
    "melting point, °C": 15
  },
  {
    "Compound": "C=CCC1([C@H](C)CCC)C(=O)NC(=O)NC1=O",
    "melting point, °C": 100
  },
  {
    "Compound": "O=C(O)c1cc([N+](=O)[O-])cc([N+](=O)[O-])c1",
    "melting point, °C": 206
  },
  {
    "Compound": "COc1ccccc1C(=O)O",
    "melting point, °C": 101
  },
  {
    "Compound": "Cc1ccccc1CO [2-methylbenzyl_alcohol]",
    "melting point, °C": 39
  },
  {
    "Compound": "O=[N+]([O-])c1cccc2ccccc12",
    "melting point, °C": 61.5
  },
  {
    "Compound": "Cc1cccc(C)c1N",
    "melting point, °C": 12
  },
  {
    "Compound": "CC(C)(C)c1ccc(O)c(C(C)(C)C)c1",
    "melting point, °C": 55
  },
  {
    "Compound": "CCCCCCCCCCCCN",
    "melting point, °C": 29
  },
  {
    "Compound": "O=C(NC1CCC(O)CC1)OCc1ccccc1 (centres undefined)",
    "melting point, °C": 163
  },
  {
    "Compound": "O=[N+]([O-])c1ccc(Oc2ccc(C(F)(F)F)cc2[N+](=O)[O-])cc1",
    "melting point, °C": 94
  }
]
